Entry source: a melting point compilation (Tetko et al.)

REPORTED PROPERTY: melting point

# lookup: melting point of COC(=O)c1c[nH]c2cccc(F)c12
159 to 161 °C

Okay, and N#CCc1nccn1CC(F)(F)F ?
106 to 108 °C

Cool, now Nc1ncc(Cc2ccc(Br)cc2)s1
129 to 131 °C

Query CNC(=O)NC(=O)C(Cl)c1ccccc1 (stereo not given) next
130 to 132 °C

Also O=Cc1cc(-c2cccs2)cs1 , if possible.
107 to 109 °C

Again, but for O=S(=O)(NC1CC1)c1ccc(F)cc1
54 to 56 °C

Moving on to the next compound: Sc1nnc(-c2cccs2)o1
162 to 164 °C

Also, Nc1oc2ccc(F)cc2c(=O)c1C=O please.
251 to 253 °C

Now the compound O=C(O)CCC(=O)c1cc(Cl)ccc1Cl
97 to 99 °C

Same question, COC(=O)c1cc([N+](=O)[O-])cc(S(C)(=O)=O)c1 this time
134 to 136 °C

Same read-out for CC(C)(C)OC(=O)NCc1ccc(C(=O)O)o1 ?
131 to 133 °C

Repeat for the following compound: O=[N+]([O-])c1cnn(CCCl)c1
55 to 57 °C

Again, but for NC(=O)c1sc2cc(Cl)ccc2c1Cl
269 to 271 °C

What about Cc1ccc(N)cc1OCC1CCOCC1 ?
114 to 116 °C

Please give the result for NCc1cccc(NS(=O)(=O)c2ccc(Cl)cc2)c1 too.
186 to 188 °C

Record: O=C(O)c1ccc2nc(S)oc2c1
295 to 297 °C

Quick one: Nn1c(S)nnc1Cc1ccccc1F
158 to 161 °C

How about O=C(O)C1CCN(c2cncc3nnnn23)CC1 ?
159 to 161 °C

What would you report for Nc1ccc(Oc2ncccn2)cc1 ?
132 to 134 °C

Consider next the compound NNC(=O)Nc1ccc(CCO)cc1 in the same way.
149 to 151 °C

Queued: CC(C)c1ccc(C(=O)O)c(C(C)C)c1
99 to 101 °C

Moving on to the next compound: CC(N)c1cccc(N2CCCS2(=O)=O)c1 (stereo not given)
60 to 62 °C

For Nc1ccc(OCC2CCCCC2)cc1 then?
53 to 55 °C

What do we get for CC(=O)NCc1ccc(-c2nc(N)sc2C)s1 ?
154 to 156 °C

Further, for CS(=O)(=O)NCC(=O)O ?
174 to 176 °C

Please give the result for COc1ccc(C(=O)O)cc1-c1ccccn1 too.
226 to 228 °C

Another compound to look at: N#Cc1ccc(NCC(=O)O)nc1
167 to 169 °C

Entry O=C(O)Cc1csc(NC(=O)NC2CC2)n1 please
188 to 190 °C

# iterate: CC(C)(C)c1cc(C(=O)O)cc(C(=O)O)c1
300 to 302 °C

Entry NC(=S)c1cc2ccccc2o1 please
146 to 148 °C

Check CC(C)(C)OC(=O)NC1CCC2CNCC21 (stereo not given) too.
109 to 111 °C

Now try CC(C)CN(C(=O)CCl)c1c(N)n(CC(C)C)c(=O)[nH]c1=O .
153 to 155 °C

Request: CCC(Oc1ccccc1C)C(=O)O (stereo not given)
49 to 51 °C

Now consider Cc1cc(=O)[nH]c(SCC(=O)O)c1C#N and answer again.
198 to 200 °C

Here is the next compound: Cc1c(Br)cc(S(=O)(=O)Cl)cc1[N+](=O)[O-]
122 to 124 °C

Param item: NC(=O)NCCc1cccs1
88 to 98 °C

Also need Cc1ccc(Cc2cnc(N)s2)cc1F , thanks.
139 to 141 °C

Now give it for Nc1cc(C(=O)O)c(F)cc1F too.
169 to 171 °C

And Cc1ccc(C(=O)NC2CCNCC2)s1 ?
163 to 165 °C

Okay, and COc1cc(OC)c(C(=O)NO)cc1OC ?
187 to 189 °C
